Experiment: Toxicokinetics in Beagle dogs
Type: in vivo, dog
Conditions: both sexes, beagle, dog, blood, po, 1.3 mg/kg, Beagle dogs, single oral dose 1.3 mg/kg, Mean, n = 2
Metric name: Cmax (ng/mL)

{"Compound smiles": "C[C@H](NC(=O)CCC(F)(F)F)C(=O)N[C@@H]1C(=O)N(CCO)c2ncccc2-c2ccccc21", "Value reported": 1940}

###

Assay: Toxicokinetics in Beagle dogs
Format: in vivo, dog
Conditions: both sexes, beagle, dog, in vivo, po, 0.3 mg/kg, Beagle dogs, multiple oral doses (3 doses/week), 0.3 mpk, mean n = 2
Metric name: Cmax (ng/mL)

{"Compound smiles": "C[C@H](NC(=O)CCC(F)(F)F)C(=O)N[C@@H]1C(=O)N(CCO)c2ncccc2-c2ccccc21", "Value reported": 2460}

###

Experiment: Toxicokinetics in Beagle dogs
Format: in vivo, dog
Settings: female, beagle, dog, blood, po, 1.3 mg/kg, Beagle dog, single oral dose 1.3 mg/kg, Subject 0008_F

{"Compound smiles": "C[C@H](NC(=O)CCC(F)(F)F)C(=O)N[C@@H]1C(=O)N(CCO)c2ncccc2-c2ccccc21", "Cmax, ng/mL": 2070}

###

Assay: Toxicokinetics in Beagle dogs
Type: in vivo, dog
Details: both sexes, beagle, dog, in vivo, po, 0.3 mg/kg, Beagle dogs, single oral dose, 0.3 mpk, mean n = 2
Procedure: A study is carried out to assess the Toxicity and Toxicokinetics of 4,4,4-trifluoro-N-[(1S)-2-[[(7S)-5-(2-hydroxyethyl)-6-oxo-7H-pyrido[2,3-d][3]benzazepin-7-yl]amino]-1-methyl-2-oxo-ethyl]butanamide in dogs given oral gavage doses of 0 or 1.3 mg/kg once daily for 6 days or 0.3 or 3 mg/kg every other day for a total of 3 doses. […]
Metric name: Cmax (ng/mL)

{"Compound": "C[C@H](NC(=O)CCC(F)(F)F)C(=O)N[C@@H]1C(=O)N(CCO)c2ncccc2-c2ccccc21 [Compound 1]", "Value reported": 309}

###

Experiment: Toxicokinetics in Beagle dogs
Assay type: in vivo, dog
Conditions: both sexes, beagle, dog, in vivo, po, 3 mg/kg, Beagle dogs, single oral dose, 3 mpk, mean n = 2
Metric name: Cmax (ng/mL)

{"Molecule": "C[C@H](NC(=O)CCC(F)(F)F)C(=O)N[C@@H]1C(=O)N(CCO)c2ncccc2-c2ccccc21 [Compound 1]", "Unit name": "ng/mL", "Value reported": 2730}

Attribution: patent US20190209581A1
